- measured target: EGFR (d746-750/T790M/C797S) (Homo sapiens (Human), UniProt P00533, C797S/DEL746-750/T790M)
- Sequence (P00533 other isoform, or with tags, fused parts or gaps T790M/C797S/del 1-694/del 746-750 limits assumed): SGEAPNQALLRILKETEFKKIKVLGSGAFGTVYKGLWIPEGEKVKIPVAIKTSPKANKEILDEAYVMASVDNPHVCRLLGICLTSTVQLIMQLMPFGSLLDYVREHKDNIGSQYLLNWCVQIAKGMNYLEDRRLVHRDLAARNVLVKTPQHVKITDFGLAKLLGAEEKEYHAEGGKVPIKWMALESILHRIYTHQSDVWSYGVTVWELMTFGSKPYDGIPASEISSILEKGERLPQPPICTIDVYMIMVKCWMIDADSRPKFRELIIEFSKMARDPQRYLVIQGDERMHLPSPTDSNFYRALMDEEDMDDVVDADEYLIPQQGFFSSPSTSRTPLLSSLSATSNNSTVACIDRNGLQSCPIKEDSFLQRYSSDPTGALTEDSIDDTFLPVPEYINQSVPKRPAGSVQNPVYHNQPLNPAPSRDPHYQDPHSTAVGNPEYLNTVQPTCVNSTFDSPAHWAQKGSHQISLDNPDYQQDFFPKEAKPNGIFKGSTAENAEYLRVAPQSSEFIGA
- protocol summary: Inhibitory activity for EGFR (d746-750/T790M/C797S) kinase
- condition label: ATP 5 μM; read-out: EGFR(d19/T790M/C797S) (IC50)
pIC50: −log10 of the molar value.
compounds and their reported pIC50
parameter measured: pIC50

> print(dat)
                                   compound                           measured.target  experimental.value
1  Cc1cc2cc(n1)-c1cnn(C)c1OCCC[C@@H](C1CC1)CN1/C(=N/C2=O)Nc2ccc(N[C@@H](C)CCN3CCCCC3)cc21 [Example 144]  EGFR (d746-750/T790M/C797S) (Homo sapiens (Human), UniProt P00533, C797S/DEL746-750/T790M)               10.17
2  Cc1cc2cc(n1)-c1cnn(C)c1OCCC[C@@H](C1CC1)CN1/C(=N/C2=O)Nc2cc(NC3CCN(C)CC3)ccc21 [Example 10]  EGFR (d746-750/T790M/C797S) (Homo sapiens (Human), UniProt P00533, C797S/DEL746-750/T790M)               10.64
3  Cc1cc2cc(n1)-c1cnn(C)c1OCCC[C@@H](C1CC1)CN1/C(=N/C2=O)Nc2ccc(NC(=O)CCCN(C)C)cc21 [Example 113]  EGFR (d746-750/T790M/C797S) (Homo sapiens (Human), UniProt P00533, C797S/DEL746-750/T790M)               10.18

Data credit: patent US20250034165A1
